These data points were gathered from patent US20250353873A1.

Provide the recorded APOE RNA (% UTC) for the entries that follow.
System: human APOE RNA
Assay: Dose-dependent reduction of human APOE RNA in HepG2 cells, electroporation, 20,000 cells per well, average of GAPDH- and PPIA-normalized results (Example 4, Table 12)
Format: cell-based
Conditions: 3,200 nM, HepG2, 20,000 cells per well
Strand notation (5' to 3'): a small letter for the sugar, then the base; units joined by * are phosphorothioate-linked, units joined directly phosphodiester-linked; [ ] holds rarer units or linkages, { } end groups; capitals alone tell only the bases. [ms] = mesyl phosphoramidate linkage; e = 2'-O-(2-methoxyethyl) (MOE); k = constrained ethyl (cEt); [5mC] = 5-methylcytosine; d = 2'-deoxy (DNA)
Answers are plain numbers, in % UTC.

Exercise: Input 1778111: modified oligonucleotide complementary to human APOE RNA (eA*e[5mC]eTeTeG*kG*dT*dG[ms]dA[ms]dA*dT*d[5mC]*dT*dT*dT*dA[ms]eTeT*eA*eA; antisense) [compound 1778111] , output reported APOE RNA (% UTC).
Solution: 21

Exercise: Consider the substance Aes^mCeoTeoTesGesGksTdsGdzAdzAdzTds^mCdsTdsTdsTdsAdzTksTksAesAe (eA*e[5mC]eTeT*eG*kG*dT*dG[ms]dA[ms]dA[ms]dT*d[5mC]*dT*dT*dT*dA[ms]kT*kT*eA*eA) [Compound No. 1757576] . State its measured APOE RNA (% UTC).
Solution: 22

Exercise: Please give the documented APOE RNA (% UTC) of 1778128: modified oligonucleotide complementary to human APOE RNA (eA*e[5mC]eTeTkGkG*dT*dG[ms]dA[ms]dA*dT*d[5mC]*dT*dT*dT*dA[ms]kTeT*eA*eA; antisense) [compound 1778128]
Solution: 25

As a next step, examine the substance that follows.
Exercise: Tell me its APOE RNA (% UTC) given 1778130: modified oligonucleotide complementary to human APOE RNA (eA*e[5mC]eTeTeG*kG*dT*dG[ms]dA[ms]dA*dT*d[5mC]*dT*dT*dT*dA[ms]kTkT*eA*eA; antisense) [compound 1778130] as the entry.
Solution: 12

###

Tested on: human APOE RNA
Test: Dose-dependent inhibition of human APOE RNA in HepG2 cells, electroporation, 24 hours (Example 6)
Assay type: cell-based
Conditions: 205 nM
Strand notation (5' to 3'): a small letter for the sugar, then the base; units joined by * are phosphorothioate-linked, units joined directly phosphodiester-linked; [ ] holds rarer units or linkages, { } end groups; capitals alone tell only the bases. [ms] = mesyl phosphoramidate linkage; e = 2'-O-(2-methoxyethyl) (MOE); k = constrained ethyl (cEt); [5mC] = 5-methylcytosine; d = 2'-deoxy (DNA)
Result Type: APOE RNA (% UTC)
One number for each entry, in % UTC.

Exercise: Indicate the recorded APOE RNA (% UTC) value for this substance: 1736528 (e[5mC]*eT*eT*eG*eG*eTdG[ms]dA[ms]dA[ms]dT*d[5mC]*dT*dT*dT*dA[ms]dT*kT*eA*eA*eA; antisense) [Compound 1736528]
Solution: 84

Exercise: Please give measured APOE RNA (% UTC) of the following entry: 1736514 (e[5mC]*eTeT*eG*kG*kT*dG[ms]dA[ms]dA[ms]dT*d[5mC]*dT*dT*dT*dA[ms]dT*eT*eA*eA*eA; antisense) [Compound 1736514]
Solution: 80

Exercise: Give the reported APOE RNA (% UTC) for this substance. 1736532 (e[5mC]*eT*eT*eG*kG*kTdG[ms]dA[ms]dA[ms]dT*d[5mC]*dT*dT*dT*dA[ms]dT*eT*eA*eA*eA; antisense) [Compound 1736532]
Solution: 54

Exercise: // Input: 1736536 (e[5mC]*eT*eT*eG*kGkT*dG[ms]dA[ms]dA[ms]dT*d[5mC]*dT*dT*dT*dA[ms]dT*eT*eA*eA*eA; antisense) [Compound 1736536] . Output its APOE RNA (% UTC) only.
Solution: 63

Respectfully, I request APOE RNA (% UTC) for each entry included below.
1. 1736492 (e[5mC]*eTeT*eG*eG*eT*dG[ms]dA[ms]dA[ms]dT*d[5mC]*dT*dT*dT*dA[ms]dT*kT*eA*eA*eA; antisense) [Compound 1736492]
2. 1736513 (e[5mC]*eTeT*eG*eG*kT*dG[ms]dA[ms]dA[ms]dT*d[5mC]*dT*dT*dT*dA[ms]dT*eT*eA*eA*eA; antisense) [Compound 1736513]
3. 1736521: 6-10-4 MOE gapmer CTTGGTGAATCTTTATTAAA, linkages sosssszzzsssssssoss (e[5mC]*eTeT*eG*eG*eT*dG[ms]dA[ms]dA[ms]dT*d[5mC]*dT*dT*dT*dA*dT*eTeA*eA*eA) [compound 1736521]

Solution:
71
72
65

###

Tested on: human APOE RNA
Assay: Activity in APOE C57BL/6NTac-Apoeem7250 knock-in mice, single ICV bolus, 16 weeks (Example 12)
Format: in vivo
Settings: spinal cord; single ICV bolus 300 μg; 16 weeks post treatment; normalized to mouse Ppia
Strand notation (5' to 3'): a small letter for the sugar, then the base; units joined by * are phosphorothioate-linked, units joined directly phosphodiester-linked; [ ] holds rarer units or linkages, { } end groups; capitals alone tell only the bases. [ms] = mesyl phosphoramidate linkage; e = 2'-O-(2-methoxyethyl) (MOE); k = constrained ethyl (cEt); [5mC] = 5-methylcytosine; d = 2'-deoxy (DNA)
# label = bin(measured APOE RNA (% control) Spinal Cord), where bins are low-valued = under 40 % control, mid-valued = from 40 % control up to 70 % control, high-valued = 70 % control and over

# count of solved cases: 8
Exercise: Consider 1693142: 6-10-4 MOE gapmer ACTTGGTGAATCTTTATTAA, linkages sssoosszzzssssszsss (eA*e[5mC]*eT*eTeGeG*dT*dG[ms]dA[ms]dA[ms]dT*d[5mC]*dT*dT*dT*dA[ms]eT*eT*eA*eA) [compound 1693142] . To which APOE RNA (% control) Spinal Cord class does it belong?
Solution: high-valued

Exercise: # bin lookup: classify 1693045: 5-10-5 MOE gapmer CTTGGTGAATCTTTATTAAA, linkages ssssozzzzssssssssss (antisense e[5mC]*eT*eT*eG*eGdT[ms]dG[ms]dA[ms]dA[ms]dT*d[5mC]*dT*dT*dT*dA*eT*eT*eA*eA*eA) [compound 1693045] by its APOE RNA (% control) Spinal Cord
Solution: mid-valued

Exercise: Class? Entry: 1693103: 6-10-4 MOE gapmer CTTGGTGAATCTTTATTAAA, linkages sssosszzzssssszssss (e[5mC]*eT*eT*eGeG*eT*dG[ms]dA[ms]dA[ms]dT*d[5mC]*dT*dT*dT*dA[ms]dT*eT*eA*eA*eA) [compound 1693103]
Solution: mid-valued

Exercise: Class (by measured APOE RNA (% control) Spinal Cord) for 1693078: 6-10-4 MOE gapmer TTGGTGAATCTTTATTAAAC, linkages ssossszzszssszssoss (eT*eT*eGeG*eT*eG*dA[ms]dA[ms]dT*d[5mC][ms]dT*dT*dT*dA[ms]dT*dT*eAeA*eA*e[5mC]) [compound 1693078]
Solution: high-valued

Exercise: Hi, small favor: classify 1693065: 5-10-5 MOE gapmer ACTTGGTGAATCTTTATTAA, linkages soossssszzsssssssss (antisense eA*e[5mC]eTeT*eG*dG*dT*dG*dA[ms]dA[ms]dT*d[5mC]*dT*dT*dT*eA*eT*eT*eA*eA) [compound 1693065] by its APOE RNA (% control) Spinal Cord when you get a moment.
Solution: mid-valued

Exercise: Band for 1693069: 5-10-5 MOE gapmer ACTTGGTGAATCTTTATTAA, linkages ssssosszzzszsssssss (antisense eA*e[5mC]*eT*eT*eGdG*dT*dG[ms]dA[ms]dA[ms]dT*d[5mC][ms]dT*dT*dT*eA*eT*eT*eA*eA) [compound 1693069] ?
Solution: mid-valued

Exercise: Please let me know in which category the item 1778131: modified oligonucleotide complementary to human APOE RNA (eA*e[5mC]eTeTeGkG*dT*dG[ms]dA[ms]dA*dT*d[5mC]*dT*dT*dT*dA[ms]kTkT*eA*eA; antisense) [compound 1778131] belongs.
Solution: low-valued

Exercise: Hi, small favor: classify 1693052: 5-10-5 MOE gapmer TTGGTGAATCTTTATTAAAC, linkages sossszzzsssssssosss (antisense eT*eTeG*eG*eT*dG[ms]dA[ms]dA[ms]dT*d[5mC]*dT*dT*dT*dA*dT*eTeA*eA*eA*e[5mC]) [compound 1693052] by its APOE RNA (% control) Spinal Cord when you get a moment.
Solution: high-valued

---
Exercise: In plain terms, what class is 1736535 (e[5mC]*eT*eT*eG*eGkT*dG[ms]dA[ms]dA[ms]dT*d[5mC]*dT*dT*dT*dA[ms]dT*eT*eA*eA*eA; antisense) [Compound 1736535] ?
Solution: low-valued

Exercise: Hello team, could you let me know which band the following substance falls into: 1778125: modified oligonucleotide complementary to human APOE RNA (eA*e[5mC]eTeTeGeG*dT*dG[ms]dA[ms]dA*dT*d[5mC]*dT*dT*dT*dA[ms]kTkT*eA*eA; antisense) [compound 1778125]
Solution: mid-valued

Exercise: Band assignment needed for 1693104: 6-10-4 MOE gapmer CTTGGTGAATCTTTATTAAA, linkages ssossszzzssssszssss (e[5mC]*eT*eTeG*eG*eT*dG[ms]dA[ms]dA[ms]dT*d[5mC]*dT*dT*dT*dA[ms]dT*eT*eA*eA*eA) [compound 1693104] please.
Solution: mid-valued

Exercise: Consider 1785604: modified oligonucleotide complementary to human APOE RNA (k[5mC]*dT[ms]dT[ms]kG*dG[ms]kT*dG[ms]dA[ms]dA*dT*d[5mC]*dT*dT*dT*dA*dT*kT*kA*dA[ms]kA; antisense) [compound 1785604] . To which APOE RNA (% control) Spinal Cord class does it belong?
Solution: low-valued

Exercise: Which category does the recorded APOE RNA (% control) Spinal Cord put 1736529 (e[5mC]*eT*eT*eG*eG*eTdG[ms]dA[ms]dA[ms]dT*d[5mC]*dT*dT*dT*dA[ms]dT*kT*kA*eA*eA; antisense) [Compound 1736529] in?
Solution: low-valued
